# TGI per record follows
Test system: SNB-19 CNS
Assay: NCI tumour cell line growth inhibition, 48 h

# COMPOUND, TGI
rows = [
    ("CC(C)N(C(=O)C1(O)c2ccccc2C=Cc2ccccc21)C(C)C", "44.4 µM"),
]

Problem: Supply recorded TGI for `O=C(Nc1ccc(F)cc1)c1cc(S(=O)(=O)Nc2nc3ccccc3o2)c(SCc2ccccc2)cc1Cl` here.
Solution: > 100 µM

Problem: Quick one: give measured TGI for CC(=O)O[C@H]1CCC2[C@@H]3CCC4Nc5[nH]ncc5C[C@]4(C)C3CC[C@@]21C (stereo partly drawn)
Solution: > 100 µM

Problem: Recall and state the measured TGI for `CC1(C)CC(=O)C(C=NC(=O)c2ccncc2)=C(O)C1` .
Solution: > 100 µM

Problem: Let me know recorded TGI for CCCO/S(=N\S(=O)(=O)c1ccccc1)c1ccccc1[N+](=O)[O-] (stereo not drawn) , thanks.
Solution: > 100 µM

Problem: State its TGI for this compound: `COc1c[c]([Hg][O]C(C)=O)c(OC)c(NC(=O)CC(C)=O)[c]1[Hg][O]C(C)=O`
Solution: 12.3 µM

The measured values listed here are drawn from PubChem BioAssay (NCI).
